Tested on: 817829-284-R-J1-PDC complex spheroid viability;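 also: spheroids exposed to compounds for 7 days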
Assay: Anticancer human tumor 817829-284-R-J1-PDC patient-derived colon adenocarcinoma cell line growth inhibition [POLQ]
Settings: curve of first compound; second compound 1 µM
Please go through the items and note down their pIC50.
Just the number, please; pIC50 means minus log10 of the concentration in mol/L.

QUERY: Which pIC50 is reported for this compound? CCc1cc2c(N3CCc4c(cc(Cn5ccnc5)cc4-c4cn(C)nc4C(F)(F)F)C3=O)ccnc2c(OC)n1 + Nc1ccc(C#CCN(C(=O)Cc2ncc(C(F)(F)F)cc2C(F)(F)F)c2ccc(F)cc2)nn1
RESULT: 5.63

QUERY: CNCc1ccc(-c2[nH]c3cc(F)cc4c3c2CCNC4=O)cc1 + COC1C(OC(N)=O)C(O)C(Oc2ccc3c(O)c(NC(=O)c4ccc(O)c(CC=C(C)C)c4)c(=O)oc3c2C)OC1(C)C , same question.
RESULT: 5.28

QUERY: COc1ccc([C@@H](O)c2cc(-c3ncnc4cc(N5CCOCC5)ccc34)c(F)cc2Cl)nn1 + Nc1ccc(C#CCN(C(=O)Cc2ncc(C(F)(F)F)cc2C(F)(F)F)c2ccc(F)cc2)nn1 , same question.
RESULT: 6.03

Values were extracted from PubChem BioAssay AID1963839.
